# System: FGR
# measurement-conditions: concentration: 1 μM, replicates: in singlicate; n = 1;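 note: KINOMEscan kinase panel screen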
%Inh values for the molecules below.
observation-type: %Inh (%)

>>> value("CC(C)Oc1ccc2c(-c3ccnc(Nc4ccc(N5CCN(C)CC5)cc4)n3)cnn2n1")
57
>>> value("CC(C)(C)n1cnc2c(N)ncnc21")
8
>>> value("O=c1cc(N2CCOCC2)nc2n(Cc3cccc4ccccc34)ccn12")
9
>>> value("CCc1ccnc(/C=C/c2n[nH]c3cc(Sc4ccccc4C(=O)NC)ccc23)c1")
86
>>> value("CN1c2ccc(NCc3ccc(F)cc3)cc2-c2c(cnn2C)S1(=O)=O")
0
>>> value("CCn1cnc2c(N)ncnc21")
12
>>> value("COc1ccc(Nc2nccc(N3CCC(NC(=O)Nc4cccc(C(C)=O)c4)C3)n2)cc1 (stereo not shown)")
20

###

# Test system: BMPR1B
# measurement-conditions: concentration: 1 μM, replicates: in singlicate; n = 1
%Inh: recorded values
observation-type: %Inh (%)

>>> value("Cn1ccc2ncnc(Oc3ccc(NC(=O)Nc4ccncc4)c(Cl)c3)c21")
0
>>> value("CC(=O)Nc1ccc(COc2ccc(Nc3ccnc4cc(-c5ccccn5)ccc34)cc2)cc1.Cl")
0
>>> value("Cc1ccc(C(=O)NCC(N)=O)cc1-n1c(C)cc(OCc2ccc(F)cc2F)c(Br)c1=O")
0
>>> value("c1ccc(-c2cc(-c3c[nH]nc3-c3ccccn3)ccn2)cc1")
0
>>> value("Cc1nnc(-c2ccc(C)c(-c3ccc(C(=O)Nc4ccc(NS(C)(=O)=O)cc4)cc3)c2)o1")
0
>>> value("O=C(NCCNc1ccnc(Nc2ccc(F)cc2)n1)c1cc2ccccc2s1")
0
>>> value("COc1ccc(Nc2nccc(N3CCC(NC(=O)Nc4cccc(C(C)=O)c4)C3)n2)cc1 (stereo not drawn)")
0
>>> value("Cc1nnc(-c2ccc3occ(-c4ccc(C(C)O)cc4)c3c2)o1 (stereo not drawn)")
23
>>> value("NCC(NC(=O)c1cc(-c2cn[nH]c2)c(-c2ccnc3[nH]ccc23)s1)c1ccccc1.O=C(O)C(F)(F)F.O=C(O)C(F)(F)F (stereo not drawn)")
80

###

Form field: %Inh (one value per entry).
# Tested on: ARK5
# Construct: gene NUAK1
# measurement-conditions: concentration: 1 μM, replicates: in singlicate; n = 1
observation-type: %Inh (%)

>>> value("NCC(NC(=O)c1cc(-c2cn[nH]c2)c(-c2ccnc3[nH]ccc23)s1)c1ccccc1.O=C(O)C(F)(F)F.O=C(O)C(F)(F)F (stereo not drawn)")
52
>>> value("O=C(NOCC1CC1)c1ccc(F)c(F)c1Nc1ccc(I)cc1Cl")
0
>>> value("Cc1ccc(NC(=O)c2ccnc(N3CCN(C)CC3)c2)cc1-c1ccc(C(=O)NCC2CC2)cc1")
0

###

# reported %Inh; entries follow
# Test system: ERBB3
# measurement-conditions: concentration: 1 μM, replicates: in singlicate; n = 1
observation-type: %Inh (%)

>>> value("Cc1cccc(-c2nc(-c3ccc(S(C)(=O)=O)cc3)sc2-c2ccncc2)c1")
9
>>> value("Cn1cc(-c2ccc3c(c2)CCN3C(=O)Cc2ccccc2Cl)c2c(N)ncnc21 [GSK2608885]")
86
>>> value("[2H]C([2H])(c1cccc(C(F)(F)F)c1C)n1ccn2c(=O)nc(N3CCOCC3)cc12 [GSK2336394]")
0
>>> value("O=C1NC(=O)C(N2CCc3ccccc32)=C1c1cccc(Cl)c1 [SB-408010]")
0
>>> value("COc1ccc(Nc2nccc(N3CCC(NC(=O)Nc4cc(C)ccc4C)C3)n2)cc1 (centres unmarked) [GSK1379741]")
0
>>> value("Cc1cccc(Cn2ccn3c(=O)cc(N4CCOCC4)nc23)c1 [GSK2297542]")
0
>>> value("Cl.Oc1cccc(Nc2ccnc3cc(-c4ccncc4)ccc23)c1 [GW494601]")
40
>>> value("O=C1Cc2cc(Nc3nc(NCc4cccc(S(=O)(=O)C(F)(F)F)c4)ncc3C(F)(F)F)ccc2N1")
9
>>> value("COc1cc2c(cc1OCCN1CCN(C)CC1)ncc1c3ccc(C#N)cc3[nH]c21")
4
>>> value("NCC(NC(=O)c1cc(-c2cn[nH]c2)c(-c2ccnc3[nH]ccc23)s1)c1ccccc1.O=C(O)C(F)(F)F.O=C(O)C(F)(F)F (centres unmarked) [GSK1325775]")
0
>>> value("NS(=O)(=O)c1cccc(-c2ccc3ncc(N4CCOCC4)nc3c2)c1 [GSK1535721]")
11
>>> value("COc1ccc(Nc2nccc(N3CCC(NC(=O)Nc4cccc(C(C)=O)c4)C3)n2)cc1 (centres unmarked) [GSK1379731]")
0
>>> value("Cc1ccc(C(=O)NCC(N)=O)cc1-n1c(C)cc(OCc2ccc(F)cc2F)c(Br)c1=O")
0
>>> value("COC(=O)Nc1nc2cc(Oc3ccc(NC(=O)Nc4cc(F)ccc4F)cc3)ccc2[nH]1.Cl [GW701424]")
26
>>> value("CN(C1=C(c2ccccc2)C(=O)NC1=O)c1ccccc1 [SB-334860]")
0
>>> value("O=c1cc(N2CCOCC2)nc2n(Cc3cccc(Cl)c3Cl)c(C3CC3)nn12 [GSK2358994]")
9
>>> value("Cc1cn2c(=O)cc(N3CCOCC3)nc2n1Cc1cccc(Cl)c1Cl [GSK2334006]")
0
>>> value("N#Cc1c(N2CCOCC2)sc(-c2ccn[nH]2)c1-c1ccc(Cl)cc1")
22
>>> value("CCc1nc(-c2cccc(C)c2)c(-c2ccnc(NCc3ccccc3)c2)s1")
2
>>> value("CCn1cnc2c(N)ncnc21 [GW345098]")
10
